pIC50: −log10 of the molar value.
Literature compilation of pIC50 measurements on Aminopeptidase N (Sus scrofa).
Sequence (P15145 whole entry): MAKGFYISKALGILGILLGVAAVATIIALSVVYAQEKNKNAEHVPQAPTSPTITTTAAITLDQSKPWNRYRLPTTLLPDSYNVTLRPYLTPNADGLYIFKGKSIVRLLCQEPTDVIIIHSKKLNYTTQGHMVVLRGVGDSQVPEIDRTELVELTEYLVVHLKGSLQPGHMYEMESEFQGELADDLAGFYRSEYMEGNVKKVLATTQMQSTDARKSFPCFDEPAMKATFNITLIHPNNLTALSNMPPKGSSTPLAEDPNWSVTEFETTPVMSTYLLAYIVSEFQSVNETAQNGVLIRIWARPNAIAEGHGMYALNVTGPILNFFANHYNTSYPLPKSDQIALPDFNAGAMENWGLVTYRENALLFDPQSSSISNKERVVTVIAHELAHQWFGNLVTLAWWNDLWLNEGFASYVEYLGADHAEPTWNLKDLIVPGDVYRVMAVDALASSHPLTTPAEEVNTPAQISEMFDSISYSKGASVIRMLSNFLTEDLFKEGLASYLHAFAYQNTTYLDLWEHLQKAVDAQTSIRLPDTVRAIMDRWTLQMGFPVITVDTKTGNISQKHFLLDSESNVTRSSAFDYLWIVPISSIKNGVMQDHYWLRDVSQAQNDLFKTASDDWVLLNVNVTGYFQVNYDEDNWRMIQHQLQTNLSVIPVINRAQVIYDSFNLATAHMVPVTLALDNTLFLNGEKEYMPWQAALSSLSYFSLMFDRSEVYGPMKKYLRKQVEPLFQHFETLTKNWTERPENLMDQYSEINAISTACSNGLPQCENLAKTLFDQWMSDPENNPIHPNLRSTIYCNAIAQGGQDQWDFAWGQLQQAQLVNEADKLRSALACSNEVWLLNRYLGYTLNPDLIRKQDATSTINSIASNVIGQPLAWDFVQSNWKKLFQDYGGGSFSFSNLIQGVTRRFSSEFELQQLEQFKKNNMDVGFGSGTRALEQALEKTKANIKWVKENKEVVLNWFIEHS
Assay Readout: pIC50

Worked examples follow.
- O=C(O)CNC(=O)C(CC(=O)NO)Cc1ccccc1 (centres undefined): 5.70
- CC(C)C[C@H](NC(=O)Nc1ccccc1Br)C(=O)NO: 7.22
- CC(C)C[C@H](NC(=O)NCc1cn(Cc2ccc(Cl)c(Cl)c2)nn1)C(=O)NO: 5.26
- CC(C)C[C@H](NC(=O)NCc1cn(Cc2ccc3ccccc3c2)nn1)C(=O)NO: 5.41
- COc1cc(C(=O)N[C@H](CCC(=O)O)C(=O)Nc2ccc(F)cc2F)cc(OC)c1OC: 4.05

A: N[C@@H](C(=O)NCCc1ccccc1Cl)[C@@H](O)c1ccc([N+](=O)[O-])cc1
B: NCCCC[C@H](NC(=O)N[C@@H](CS)C(=O)NC[C@H](N)Cc1ccccc1)C(=O)O
C: CC(C)C[C@H](NC(=O)CN1C(=O)C2(OCCO2)c2cc(Br)ccc21)C(=O)NO
Reorder: pIC50, max to min. Lab note: final answer is the ordered label list.
B, C, A
(B: 5.07, C: 4.65, A: 3.86)
